tested on: RBM10 RRM1-ZnF-RRM2 (GST-tagged construct); test: RNAcompete 7-mer binding Z-score; higher = stronger binding preference;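 further: 20 pmol protein with 1.5 nmol RNA pool for 30 min at 4°C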
Whole data set: some 16,000 sequences, median “Z-score” near -0.37, cut for the highest 2% near 3.1. The list comes from a sample in which the highest values are over-represented; it also holds close analogues and randomly drawn sequences.
assay-metric: RNAcompete 7-mer binding Z-score
Keep it simple and answer with nothing but the number.

Example cases with answers are listed next.
• GAGGAAA = 2.2
• GGGAUGA = 3.59
• AUAGGGC = 2.14
• CUAGGAG = 0.534
• AGGAUAG = 2.21

Requested read-out: RNAcompete 7-mer binding Z-score. Entry: AAUGGCG
2.02

====

test system: RBM10 RRM1-ZnF-RRM2 (GST-tagged construct); test: RNAcompete 7-mer binding Z-score; higher = stronger binding preference;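 further: 20 pmol protein with 1.5 nmol RNA pool for 30 min at 4°C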
The full ranking holds about 16,000 sequences; the median of “Z-score” is about -0.37, and the highest 2% start at about 3.1. For the sample, the highest values were picked, then their nearest neighbours and some sequences at random.
Tick YES if RNAcompete 7-mer binding Z-score is 2 or greater. Tick NO if RNAcompete 7-mer binding Z-score is less than 2.

• AUGGAAG = YES
• CAAUGGG = YES
• UCUUUAA = NO

Please check the record UUCCACA and state if its RNAcompete 7-mer binding Z-score is at or above 2.
NO

Please check the record AUGAGGC and state if its RNAcompete 7-mer binding Z-score is at or above 2.
NO

Please check the record UGAUCCA and state if its RNAcompete 7-mer binding Z-score is at or above 2.
NO

Please check the record GAAGGAC and state if its RNAcompete 7-mer binding Z-score is at or above 2.
YES

Please check the record AAAGGGU and state if its RNAcompete 7-mer binding Z-score is at or above 2.
YES

====

test system: RBM10 RRM1-ZnF-RRM2 (GST-tagged construct); assay: RNAcompete 7-mer binding Z-score; higher = stronger binding preference;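 further: 20 pmol protein with 1.5 nmol RNA pool for 30 min at 4°C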
The full ranking holds about 16,000 sequences; the median of “Z-score” is about -0.37, and the highest 2% start at about 3.1. This excerpt belongs to a sample that is enriched for the highest values.
assay-metric: RNAcompete 7-mer binding Z-score
Keep it simple and answer with nothing but the number.

Example cases with answers are listed next.
- AAGAGGU: 1.66
- UGGGGGA: 3.33
- GCAGCCC: -0.497
- AGCAGGA: 2.45
- UUGGGGA: 2.27

Now turn to the next sequence.
Requested read-out: RNAcompete 7-mer binding Z-score. Entry: AGAUGGU
1.63

====

tested on: RBM10 RRM1-ZnF-RRM2 (GST-tagged construct); test: RNAcompete 7-mer binding Z-score; higher = stronger binding preference;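 further: 20 pmol protein with 1.5 nmol RNA pool for 30 min at 4°C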
Over roughly 16,000 sequences, “Z-score” has its median near -0.37; the highest 2% begin near 3.1. This excerpt belongs to a sample that is enriched for the highest values.
Tick TRUE if RNAcompete 7-mer binding Z-score is 1 or greater. Tick FALSE if RNAcompete 7-mer binding Z-score is less than 1.

- AGCGGGA: TRUE
- CGCGGGA: TRUE
- UGUGGAA: TRUE
- AGCGGGU: TRUE
- CGCGAGG: FALSE
- CGCGGGG: TRUE
- GUUGCCG: FALSE
- ACGGGAC: TRUE
- AGCGGGC: TRUE

Please check the record GGCGAGC and state if its RNAcompete 7-mer binding Z-score is at or above 1.
TRUE
